- assayRemarks: physchem
- experimentalConditions: phosphate buffered saline, pH 7.4
Given measured solubility kinetic, output T if it is greater than or equal to 200 µM and F if not.

Assess whether reported solubility kinetic for CCOc1ccc(-c2nc(CNCCc3ccc(F)cc3)cs2)cc1.O=C(O)C(=O)O sits at 200 µM or higher.
F

Assess whether reported solubility kinetic for Cc1ccc(CNC(=O)c2cnn3c2NC(c2ccc(C)cc2)CC3C(F)F)cc1 (stereo unspecified) sits at 200 µM or higher.
F

Assess whether reported solubility kinetic for CC(Oc1ccccc1)C(=O)Nc1nc(-c2ccccn2)cs1 (stereo unspecified) sits at 200 µM or higher.
F

Assess whether reported solubility kinetic for COc1cc(C(F)(F)F)nc2ccc(C)c(N)c12 sits at 200 µM or higher.
T

Assess whether reported solubility kinetic for c1ccc(Cc2nnc(Sc3ccnc(N4CCN(c5ccncc5)CC4)n3)n2CCN2CCOCC2)cc1 sits at 200 µM or higher.
F

Assess whether reported solubility kinetic for Fc1ccc2nc(Nc3nc(-c4ccccn4)cs3)sc2c1 sits at 200 µM or higher.
F

Assess whether reported solubility kinetic for CN1CCN(c2cc(-c3ccc(F)cc3)nc(-c3ccncc3)n2)CC1 sits at 200 µM or higher.
F

Assess whether reported solubility kinetic for CCc1ccc(Nc2nnc(SCc3cc(C)on3)s2)cc1 sits at 200 µM or higher.
F

Assess whether reported solubility kinetic for CSc1cccc(C(=O)Nc2nc(-c3ccccn3)cs2)c1 sits at 200 µM or higher.
F

Assess whether reported solubility kinetic for CCCCS(=O)(=O)Nc1ccc2cnn(C)c2c1 sits at 200 µM or higher.
T

Assess whether reported solubility kinetic for Nc1nc2cc(-c3cncc(Oc4ccc(F)cc4)c3)ccc2[nH]1.O=C(O)C(F)(F)F.O=C(O)C(F)(F)F sits at 200 µM or higher.
F
